All values here come from patent US8802597B2.

# Test system: morningglory (Ipomoea coccinea)
# testDescription: Test C pre/postemergence
# Type: in vivo
# protocolConditions: Preemergence, 31 g ai/ha; scale 0 to 100, 0 no effect, 100 complete control
Catalogue of compounds with associated Plant response rating, Morningglory
Reply with the value as a number alone.

# example entries with known answers
* CC(C)COC(=O)c1nc(C2CC2)nc(N)c1Br | 70
* Nc1nc(-c2ccc(Cl)cc2)nc(C(=O)[O-])c1Cl.[Na+] | 0
* CCCCOC(=O)c1nc(C2CC2)nc(N)c1Cl | 60
* Nc1nc(C2CC2)nc(C(=O)O)c1Cl | 90

Find the measured Plant response rating, Morningglory of `Nc1nc(C2CC2)nc(C(=O)[O-])c1Cl.[Na+]` with morningglory (Ipomoea coccinea) as test system.
50
